FYI, the data here is from ChEMBL document CHEMBL4513216.

- assay explanation: Toxicity liver stage against HepG2, at 10uM
- Assay type: cell-based
- Design: test concentration 10 uM, cell line HepG2-A16-CD81EGFP
- condition notes: human, HepG2-A16-CD81EGFP cells; read-out: INHIBITION
readout kind: cytotoxicity at 10 µM (%)
Use % as the unit, but write only the number.

[[record]]
compound = "CCCS(=O)(=O)N1CCO[C@H]2[C@@H](Oc3cccnc3)CC[C@@H]21"
unit_string = "%"
test_result = -3.15


Item: CCCOc1ccc2c(c1)OCC(C(=O)NC(C)Cn1cccn1)=C2 (stereo not drawn) | cytotoxicity at 10 µM: 4.46

Item: CCCS(=O)(=O)N1CCN(C(=O)CO)CC1 | cytotoxicity at 10 µM: -1.96

Item: COC(=O)N1CCC(c2nnc(Cn3ccnc3)n2C)CC1 | cytotoxicity at 10 µM: -110

Item: CCN(CC)CCCC(C)NC(=O)c1ccccc1-n1cccn1 (stereo not drawn) | cytotoxicity at 10 µM: 15.9

Item: COc1c(CNCCC(=O)Nc2cccc(C)n2)c(C(C)C)nn1C | cytotoxicity at 10 µM: -1.17

Item: Cc1nn(CCO)c(C)c1CNC1CCc2c(Cl)cccc21 (stereo not drawn) | cytotoxicity at 10 µM: -6.34

Item: CCNC(=O)CN(CC)C(=O)c1csc(Cc2ccccc2F)n1 | cytotoxicity at 10 µM: 7.6

====

- assay explanation: Toxicity liver stage against HepG2, at 10uM
- Format: cell-based
- Design: test concentration 10 uM, cell line HepG2-A16-CD81EGFP
- condition notes: human, HepG2-A16-CD81EGFP cells; read-out: INHIBITION
readout kind: cytotoxicity at 10 µM (%)
Use % as the unit, but write only the number.

[[record]]
molecule = "FC(F)(F)c1cccc(CNc2nccc(C(F)(F)F)n2)c1"
test_result = -19

[[record]]
molecule = "Cc1ccc(C)c(N2CCN(CC3(O)CCNC3)CC2)c1 (configuration not stated)"
test_result = -5.83


Item: CC(C)(C)n1c(NC(=O)CNC(=O)NC2CC2)nc2ccccc21 | cytotoxicity at 10 µM: 4.23

====

We begin with a simple list: items and their reported cytotoxicity at 10 µM.
- assay explanation: Toxicity liver stage against HepG2, at 10uM
- Format: cell-based
- Parameters: test concentration 10 uM, cell line HepG2-A16-CD81EGFP
- condition notes: human, HepG2-A16-CD81EGFP cells; read-out: INHIBITION

Check out these entries, answers already filled in.
[[record]]
compound = "Cn1cnc2c(N3CCOCC3)nc(C3CCNCC3)cc21"
readout_kind = "cytotoxicity at 10 µM"
test_result = "2.98%"

[[record]]
compound = "Cc1cc(CNc2cc(Cl)ccc2OCCS(C)(=O)=O)no1"
readout_kind = "cytotoxicity at 10 µM"
test_result = "-2.27%"

[[record]]
compound = "CN1[C@H](Cn2cncn2)C[C@@H]2CN(Cc3cccc(C#N)c3)CC[C@@H]21"
readout_kind = "cytotoxicity at 10 µM"
test_result = "-9.78%"

[[record]]
compound = "CC(=O)N1CCN([C@@H]2CCC[C@@H](NC(=O)c3cccnc3)[C@H]2O)CC1"
readout_kind = "cytotoxicity at 10 µM"
test_result = "-0.00173%"

[[record]]
compound = "Cc1ccsc1CN(C)C(=O)c1cc2c([nH]c1=O)CCCC2=O"
readout_kind = "cytotoxicity at 10 µM"
test_result = "-5.36%"

[[record]]
compound = "N#Cc1ccc(NCCS(=O)(=O)N2CCc3ccccc32)nc1"
readout_kind = "cytotoxicity at 10 µM"
test_result = "-8.69%"

[[record]]
compound = "CCN1CCC2(CC1)C(=O)N(c1ccc(C)nc1)CCN2CC(C)C"
readout_kind = "cytotoxicity at 10 µM"
test_result = "16.4%"

[[record]]
compound = "NC(=O)c1cn[nH]c1C1CCCN1C(=O)COc1ccccc1 (stereo not drawn)"
readout_kind = "cytotoxicity at 10 µM"
test_result = "-3.93%"


Item: CC(C)(CNc1c(C#N)cnc2ccc(Cl)cc12)C(N)=O | cytotoxicity at 10 µM: 9.19%

Item: COCc1nc(N(C)CCSc2ccccc2)c2cnn(C)c2n1 | cytotoxicity at 10 µM: 1.98%

Item: Cc1cc(N2CCN(Cc3nccn3C)CC2)cc(C)n1 | cytotoxicity at 10 µM: 15.7%

Item: c1ncc2c(n1)CN(Cc1nc(-c3ccc4c(c3)OCO4)no1)CC2 | cytotoxicity at 10 µM: -10.4%

Item: CN(C)CCN(C)C(=O)NC1CCC(Oc2ccccc2C#N)CC1 (stereo not drawn) | cytotoxicity at 10 µM: -21.8%

====

- assay explanation: Toxicity liver stage against HepG2, at 10uM
- Type: cell-based
- Parameters: test concentration 10 uM, cell line HepG2-A16-CD81EGFP
- condition notes: human, HepG2-A16-CD81EGFP cells; read-out: INHIBITION
We begin with a simple list: items and their reported cytotoxicity at 10 µM.
Use % as the unit, but write only the number.

Check out these entries, answers already filled in.
[[record]]
compound = "CN(Cc1ccncc1)C1COC2(CCN(Cc3ccccn3)CC2)C1 (stereo unspecified)"
unit_string = "%"
test_result = -103

[[record]]
compound = "Cc1ncsc1CN1C[C@H](C(=O)NC2CCCC2)[C@@H]2CCO[C@@H]2C1"
unit_string = "%"
test_result = 8.04

[[record]]
compound = "O=C(N1CCCC1)N1C[C@@H](OCc2cccnc2)[C@H]2OCCC[C@H]21"
unit_string = "%"
test_result = 4.85

[[record]]
compound = "CC(C)c1cccc(NC(=O)N2CC(N(C)C)C2)c1"
unit_string = "%"
test_result = 9.12

[[record]]
compound = "CCCN(CCO)S(=O)(=O)c1ccc2[nH]c(=O)[nH]c2c1"
unit_string = "%"
test_result = -0.24


Proceed to the following item.
Item: CCC(O)CN1CCN(C(=O)Cc2cc(C)ccc2OC)CC1 (stereo unspecified) | cytotoxicity at 10 µM: -30.9

====

- assay explanation: Toxicity liver stage against HepG2, at 10uM
- Assay type: cell-based
- Design: test concentration 10 uM, cell line HepG2-A16-CD81EGFP
- condition notes: human, HepG2-A16-CD81EGFP cells; read-out: INHIBITION
We begin with a simple list: items and their reported cytotoxicity at 10 µM.
Use % as the unit, but write only the number.

Check out these entries, answers already filled in.
[[record]]
compound = "CO[C@H]1CC[C@H]2[C@H]1OCCN2C(=O)c1nn(C)c2ccccc12"
readout_kind = "cytotoxicity at 10 µM"
test_result = 5.33

[[record]]
compound = "Cc1cnn(CC2CCCCN2CC(=O)NCc2ccccn2)c1 (stereo unspecified)"
readout_kind = "cytotoxicity at 10 µM"
test_result = -6.16

[[record]]
compound = "CC(C)CC(NCc1cscn1)c1ccccn1 (stereo unspecified)"
readout_kind = "cytotoxicity at 10 µM"
test_result = 2.5

[[record]]
compound = "O=C(NC1CC1)[C@@H]1C[C@@H]2CCN(Cc3ccoc3)C[C@@H]2O1"
readout_kind = "cytotoxicity at 10 µM"
test_result = -103

[[record]]
compound = "Cc1nc(N2CCN(C)CC2)ncc1C(=O)N1CC(C)(C)C(C)(O)C1 (stereo unspecified)"
readout_kind = "cytotoxicity at 10 µM"
test_result = 18.5


Item: CN(C)C(=O)CN1C[C@H]2CC[C@@H](C1)N(C(=O)CCn1cncn1)C2 | cytotoxicity at 10 µM: -9.96

Item: COC(=O)c1cccn1C1CCN(C(=O)c2cc(F)ccc2C)CC1 | cytotoxicity at 10 µM: -2.13

Item: Cc1cn(Cc2ccc(F)c(F)c2)nc1N | cytotoxicity at 10 µM: -13.5

Item: CCNc1cc2c(nn1)CCN(C(=O)c1cccc3c1OCO3)C2 | cytotoxicity at 10 µM: -9.88

Item: COCCO[C@H]1CCN(Cc2cnn(C)c2)[C@H]1Cc1cccnc1 | cytotoxicity at 10 µM: 0.793

Item: CC(=O)N1CC2(CCN(C(=O)C3CC3)CC2)c2cc(C)ccc21 | cytotoxicity at 10 µM: 9.94

Item: CN1CCN(C(=O)c2cnc3c(cnn3C3CCCC3)c2)CC1 | cytotoxicity at 10 µM: -14.6

Item: CNC(=O)c1nnc2ccc(N3CCOCC3)cc2n1 | cytotoxicity at 10 µM: 6.86

Item: CCO[C@H]1C[C@@H](O)C12CCN(C(=O)CC(F)(F)F)CC2 | cytotoxicity at 10 µM: -6.36

====

- assay explanation: Toxicity liver stage against HepG2, at 10uM
- Assay type: cell-based
- Set-up: test concentration 10 uM, cell line HepG2-A16-CD81EGFP
- condition notes: human, HepG2-A16-CD81EGFP cells; read-out: INHIBITION
readout kind: cytotoxicity at 10 µM (%)
Use % as the unit, but write only the number.

Check out these entries, answers already filled in.
[[record]]
smiles = "CC(C)(NCC(=O)NCC(F)(F)F)c1ccc2c(c1)OCCO2"
test_result = -8.23

[[record]]
smiles = "COc1ccc(CNC(=O)CNc2ccccc2OC)cc1"
test_result = -2.25


Proceed to the following item.
Item: CCOC1CCN(C(=O)NCCN(C)C(=O)OC(C)(C)C)CC1 | cytotoxicity at 10 µM: 15.8
